These data points were gathered from ChEMBL document CHEMBL3132841.

biological target: Lysine-specific histone demethylase 1A (Homo sapiens)
recorded-endpoint: pIC50
Here pIC50 is given on a logarithmic scale as minus log10 of the concentration in mol/L.

Reported Lysine-specific histone demethylase 1A (Homo sapiens) pIC50 for item "CC(C)(C)OC(=O)N1CCN(C(=S)SCc2cn(Cc3cc4ccc(O)cc4oc3=O)nn2)CC1" was 3.99
